system: P. falciparum stage V gametocytes; design: BacTiter-Glo ATP luminescence viability of purified stage V gametocytes in 384-well plates, per cent inhibition versus DMSO; settings: 48 h, 5 µM; inhibitor
Among all 13,000 compounds or so, about 3,200 (25%) showed an effect of 50% or more. This is one part of the list.
Listing of entries alongside the reported % Inhibition.
property name: % Inhibition (%)

| compound | property name | numeric readout |
| --- | --- | --- |
| COc1ccc2nccc([C@@H](O)CN3CCC(NCCNc4cccc(F)c4)CC3)c2c1 | % Inhibition | -36.18 |
| COc1ccccc1N=C1SC(=Cc2cn(CC(=O)N3CCCc4ccccc43)c3ccccc23)C(=O)N1C1CCCCC1 | % Inhibition | 13.24 |
| Nc1ccc(-c2csc(Nc3ccncc3)n2)cc1 | % Inhibition | -22.32 |
| CN(C)Cc1cccc(-c2ccc(NC(=O)c3ccc4c(=O)n(CC5CCCO5)cnc4c3)cc2)c1 (stereo not shown) | % Inhibition | 80.9 |

###

test system: P. falciparum stage V gametocytes; parameters: BacTiter-Glo ATP luminescence viability of purified stage V gametocytes in 384-well plates, per cent inhibition versus DMSO; conditions: 48 h, 5 µM; inhibitor
About 3,200 (25%) of roughly 13,000 compounds showed an effect of 50% or more. Some of the results follow.

| compound | tested on | uom | % Inhibition |
| --- | --- | --- | --- |
| CCn1c(-c2nonc2N)nc2c(-c3cccc(NC(=O)Nc4cccc(C#N)c4)c3)ncc(OCCCN)c21 | P. falciparum stage V gametocytes | % | 98.06 |
| Cc1cc(N2CCN(CC3CCN(C)CC3)CC2)nc(Nc2ccc(Cl)cc2)n1 | P. falciparum stage V gametocytes | % | 55.47 |
| Cc1cc(N(C)C)nc(Nc2ccc(NC(=O)CCc3ccccc3)cc2)n1 | P. falciparum stage V gametocytes | % | 2.562 |
| Cc1cc(NCC2CCN(CC3CCCCC3)C2)nc(Nc2ccc(Cl)cc2)n1 (centres unmarked) | P. falciparum stage V gametocytes | % | -71.76 |
| O=S(=O)(NC1CCN(c2ccnc3cc(Cl)ccc23)C1)c1ccc(C(F)(F)F)cc1 (centres unmarked) | P. falciparum stage V gametocytes | % | -7.86 |
| CCCCOc1c(CNCCCCCCNCc2ccc3ccccc3c2OCCCC)ccc2ccccc12 | P. falciparum stage V gametocytes | % | 107.4 |
| CN(C)CCNC(=O)c1cc2c(-c3ccc(Cl)cc3)nn(C)c2s1 | P. falciparum stage V gametocytes | % | -36.25 |
| Nc1c2c(nc3ccc(NC(=O)Cc4ccccc4)cc13)CCCC2 | P. falciparum stage V gametocytes | % | 81.23 |
| CN1CCN(c2ccnc3ccc(NC(=O)Cc4ccc(OCc5ccccc5)cc4)cc23)CC1 | P. falciparum stage V gametocytes | % | 24.22 |
| CC(C#N)Cc1ccc(-c2cnc(N)c3cc(-c4ccnc(N)n4)ccc23)cc1 (centres unmarked) | P. falciparum stage V gametocytes | % | 15.83 |
| O=C(CCCc1ccccc1)Nc1cccc(N2CCC(N3CCN(c4ccccc4O)CC3)CC2)c1 | P. falciparum stage V gametocytes | % | -59.43 |
| N#Cc1cccc(NC(=O)Nc2cccc(-c3cccc(-c4nc5ccccc5[nH]4)c3)c2)c1 | P. falciparum stage V gametocytes | % | -45.89 |
| Cc1ccc(-n2nc(-c3ccccc3)c3cc(C(=O)NCCN)sc32)cc1 | P. falciparum stage V gametocytes | % | 110.1 |
| Clc1ccc2c(NN=Cc3cccnc3)ccnc2c1 | P. falciparum stage V gametocytes | % | -19.33 |
| O=C(Nc1ccc([N+](=O)[O-])cc1O)Nc1ccccc1Oc1ccccc1 | P. falciparum stage V gametocytes | % | -27.06 |
| CCn1cc(C=C2Oc3c(ccc(O)c3CN3CCCCC3)C2=O)c2ccccc21 | P. falciparum stage V gametocytes | % | 37.53 |
| O=C(c1cccc(-c2noc(C(F)(F)F)n2)c1)N1CCN(C(=O)c2ccc3cc[nH]c3c2)CC1 | P. falciparum stage V gametocytes | % | 0.1652 |

The values you see were collected from paper PMC4552634.
